Biological target: EPHB2 (UniProt P29323)
Sequence (P29323 whole entry, looked up): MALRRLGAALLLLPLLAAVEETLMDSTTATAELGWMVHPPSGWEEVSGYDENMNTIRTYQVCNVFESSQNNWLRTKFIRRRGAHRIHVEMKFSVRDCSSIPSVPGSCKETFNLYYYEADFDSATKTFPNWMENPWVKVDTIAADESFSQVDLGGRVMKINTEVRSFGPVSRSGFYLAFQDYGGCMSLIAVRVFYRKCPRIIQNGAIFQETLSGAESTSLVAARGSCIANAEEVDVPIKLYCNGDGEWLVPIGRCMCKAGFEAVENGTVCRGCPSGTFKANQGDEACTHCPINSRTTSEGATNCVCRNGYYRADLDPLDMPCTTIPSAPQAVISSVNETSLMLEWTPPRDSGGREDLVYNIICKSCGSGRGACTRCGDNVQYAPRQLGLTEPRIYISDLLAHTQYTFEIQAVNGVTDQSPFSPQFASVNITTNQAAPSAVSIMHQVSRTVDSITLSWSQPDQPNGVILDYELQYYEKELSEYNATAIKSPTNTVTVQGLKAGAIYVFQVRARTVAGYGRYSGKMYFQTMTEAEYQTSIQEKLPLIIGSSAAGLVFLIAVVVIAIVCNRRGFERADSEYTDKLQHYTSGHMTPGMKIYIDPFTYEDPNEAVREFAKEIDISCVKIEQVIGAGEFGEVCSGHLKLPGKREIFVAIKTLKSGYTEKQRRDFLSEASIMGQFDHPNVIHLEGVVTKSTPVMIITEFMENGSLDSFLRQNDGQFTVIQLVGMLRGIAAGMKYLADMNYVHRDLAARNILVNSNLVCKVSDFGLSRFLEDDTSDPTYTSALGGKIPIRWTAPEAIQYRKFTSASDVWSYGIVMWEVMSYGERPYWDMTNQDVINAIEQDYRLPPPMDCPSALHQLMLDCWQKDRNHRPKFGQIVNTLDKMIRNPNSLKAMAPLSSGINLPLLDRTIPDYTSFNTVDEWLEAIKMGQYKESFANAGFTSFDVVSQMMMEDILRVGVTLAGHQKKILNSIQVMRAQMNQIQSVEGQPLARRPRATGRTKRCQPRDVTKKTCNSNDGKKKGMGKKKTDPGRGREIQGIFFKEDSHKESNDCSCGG
Assay: phosphorylation enrichment, bacterial display (enrichment ratio); higher = better substrate or ligand; peptides without Tyr show the background;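 note: 11-residue human phosphosite peptides and single-mutation variants displayed on the E. coli surface, counted by deep sequencing, each peptide's frequency after selection divided by its frequency in the unselected input library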;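 note: frequency after pTyr selection over input frequency; kinase dosed for 20-30% of maximal phosphorylation in three min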
assay.metric: phosphorylation enrichment
Please respond with just the number, no unit label.

Example sequences with recorded phosphorylation enrichment:
FMFKVYSDPQP [FGFR1_Y280_C277Y_YF]
0.845
LRSELYSLIAR [PHIP_Y16_F17S]
1.36
KMTGRYEMYAR [UPB1_Y362]
0.627
MFKPMYALFRT [HUWE1_Y4078_N4075K]
0.621
IQVDAYFSPIH [ADSL_Y432]
0.75

Q: Please look up its phosphorylation enrichment: CFTGKYTLPPG [HSPB1_Y142_R140G]
A: 0.649

Q: Here is the next sequence: PADCRYYTFPQ [GAMT_Y222_A224T]
A: 2.18
